All figures here come from patent US9233983B2.

Target: human Bruton's Tyrosine Kinase (Btk) (Homo sapiens (Human), UniProt Q06187)
Sequence (Q06187 whole entry): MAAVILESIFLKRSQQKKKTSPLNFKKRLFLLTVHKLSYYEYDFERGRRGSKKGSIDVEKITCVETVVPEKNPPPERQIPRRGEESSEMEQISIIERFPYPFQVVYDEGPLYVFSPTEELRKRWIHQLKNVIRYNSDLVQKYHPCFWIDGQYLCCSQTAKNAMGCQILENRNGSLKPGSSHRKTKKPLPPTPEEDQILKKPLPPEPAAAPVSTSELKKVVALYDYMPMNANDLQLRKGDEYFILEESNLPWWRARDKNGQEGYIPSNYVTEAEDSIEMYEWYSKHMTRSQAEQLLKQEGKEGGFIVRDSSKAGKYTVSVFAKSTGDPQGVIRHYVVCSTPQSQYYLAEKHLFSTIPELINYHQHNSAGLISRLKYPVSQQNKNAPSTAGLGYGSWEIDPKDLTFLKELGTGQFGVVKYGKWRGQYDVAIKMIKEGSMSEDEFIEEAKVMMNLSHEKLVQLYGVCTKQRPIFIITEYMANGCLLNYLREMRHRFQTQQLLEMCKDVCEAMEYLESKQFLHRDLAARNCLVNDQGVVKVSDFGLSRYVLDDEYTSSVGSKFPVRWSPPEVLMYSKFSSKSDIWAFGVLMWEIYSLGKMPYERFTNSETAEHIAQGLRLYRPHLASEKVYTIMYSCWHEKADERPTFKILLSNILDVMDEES
Assay: Recombinant Human Bruton's Tyrosine Kinase (Btk) Inhibition Assay (HTRF KinEASE-TK)
Type: biochemical
Details: 20 ng/ml rhBtk, 77 μM ATP (KM), 1 μM TK-Biotin substrate, 90 min; read-out: hBTK IC50
We label by threshold. Values of IC50 strictly beneath 10 nM are true (1). Values of 10 nM and up are false (0).

> print(dat)
                                   compound  class.name
1  Cc1c(-c2nc(N)nc3[nH]c(-c4ccc(C(=O)N5CCOCC5)cc4)cc23)cccc1N1CCOc2cc(C3CC3)ccc2C1=O [Example O-1]   false (0)
2  Cc1c(-c2ncnc3[nH]c(-c4ccc(C(=O)N5CCC(O)CC5)cc4)cc23)cccc1N1CCc2cc(C3CC3)ccc2C1=O [Example K-16]   false (0)
3  O=C1c2c(F)cc(C3CC3)cc2OCCN1c1cccc(-c2ccnc3[nH]c(-c4ccc(CN5CCN(C6COC6)CC5)cn4)cc23)c1CO [Example I-13]    true (1)
4  CCN1CCN(Cc2ccc(-c3cc4c(-c5cccc(N6CCOc7cc(C8CC8)cc(F)c7C6=O)c5CO)ccnc4[nH]3)nc2)CC1 [Example I-12]    true (1)
5  Cc1c(-c2ncnc3[nH]c(-c4cnn(C5CCN(C)CC5)c4)cc23)cccc1N1CCOc2cc(C3CC3)ccc2C1=O [Example D-2]   false (0)
6  CC1(O)CN(C(=O)c2ccc(-c3cc4c(-c5cccc(N6CCOc7cc(C8CC8)cc(F)c7C6=O)c5CO)ccnc4[nH]3)nc2)C1 [Example L-4]   false (0)

----------
System: mouse splenocytes
Test: Inhibition of B Cell Activation as Measured by CD69 Expression in Mouse Splenocytes
Format: cell-based
Details: Splenocyte; C57/BL6 splenocytes, 3 ug/mL goat anti-mouse IgM, 18-20 hrs, CD69+ve cells within CD19; read-out: Mouse spleenocyte IC50
Below, each entry is listed with its recorded IC50.
Recorded Metric: IC50 (nM)

> print(dat)
                                    compound  recorded.metric  reading.unit  qualifying.sign  assay.value
 1  CN1CCC(Oc2ccc(-c3cc4c(-c5cccc(N6CCOc7cc(C8CC8)ccc7C6=O)c5CO)ncnc4[nH]3)cc2)CC1 [Example G-1]             IC50            nM                =           51
 2  CN1CCC(n2cc(-c3cc4c(-c5cccc(-n6ccc7cc(C8CC8)ccc7c6=O)c5CO)ncnc4[nH]3)cn2)CC1 [Example D-3]             IC50            nM                =           43
 3  CN1CCN(Cc2ccc(-c3cc4c(-c5cccc(N6CCOc7cc(C8CC8)ccc7C6=O)c5CO)ccnc4[nH]3)cn2)CC1 [Example B-20]             IC50            nM                =           67
 4  Cc1c(-c2ncnc3[nH]c(-c4ccc(CN5CCN(C)CC5)cc4)cc23)cccc1N1CCOc2cc(C3CC3)ccc2C1=O [Example B-2]             IC50            nM                =          200
 5  CCN1CCN(Cc2ccc(-c3cc4c(-c5cccc(N6CCOc7cc(C8CC8)cc(F)c7C6=O)c5CO)ccnc4[nH]3)nc2)CC1 [Example I-12]             IC50            nM                =           46
 6  CN1CCCC(F)(c2ccc(-c3cc4c(-c5cccc(N6CCOc7cc(C8CC8)ccc7C6=O)c5CO)ccnc4[nH]3)cc2)C1 (stereo not shown) [Example J-2]             IC50            nM                =           77
 7  CN1CCC(n2cc(-c3cc4c(-c5cccc(N6CCOc7cc(C8CC8)ccc7C6=O)c5CO)ccnc4[nH]3)cn2)CC1 [Example D-5]             IC50            nM                =           38
 8  CN1CCN(c2ccc(-c3cc4c(-c5cccc(-n6ccc7cc(C8CC8)ccc7c6=O)c5CO)ncnc4[nH]3)cc2)CC1 [Example C-1]             IC50            nM                =            9
 9  N#CCC(=O)N1CC=C(c2cc3c(-c4cccc(N5CCOc6cc(C7CC7)cc(F)c6C5=O)c4CO)ccnc3[nH]2)CC1 [Example P-27]             IC50            nM                =           50
10  CN1CCC(c2ccc(-c3cc4c(-c5cccc(-n6ccc7cc(C8CC8)ccc7c6=O)c5CO)ncnc4[nH]3)cc2)CC1 [Example D-4]             IC50            nM                =           19
11  CN1CCN(c2ccc(-c3cc4c(-c5cccc(N6CCOc7cc(C8CC8)ccc7C6=O)c5CO)ccnc4[nH]3)cn2)CC1 [Example D-11]             IC50            nM                =           80
12  O=C1c2c(F)cc(C3CC3)cc2OCCN1c1cccc(-c2ccnc3[nH]c(C4=CCN(C5CCOC5)CC4)cc23)c1CO (stereo not shown) [Example P-21]             IC50            nM                =           59
13  Cc1c(-c2ncnc3[nH]c(-c4ccc(C(=O)N5CCC(O)CC5)cc4)cc23)cccc1N1CCc2cc(C3CC3)ccc2C1=O [Example K-16]             IC50            nM                >         1000
